# Method summary: Clinical pharmacokinetics of treosulfan in plasma and urine
# Format: in vivo, human
# Condition details: human, plasma, intravenous, 14 g/m^2, apparent half‐life, median, day −4, patients
Measure: half-life

[[record]]
molecule = "CS(=O)(=O)OC[C@H](O)[C@@H](O)COS(C)(=O)=O [treosulfan, L‐threitol‐1,4‐bis‐methanesulfonate]"
value_reported = "1.93 h"


###

# Method summary: Clinical pharmacokinetics of treosulfan in plasma and urine
# Type: in vivo, human
# Condition details: human, plasma, intravenous, 14 g/m^2, apparent half‐life, median, day −6, patients
Measure: half-life (h)

[[record]]
molecule = "CS(=O)(=O)OC[C@H](O)[C@@H](O)COS(C)(=O)=O [treosulfan, L‐threitol‐1,4‐bis‐methanesulfonate]"
measure = "half-life"
result_unit = "h"
value_reported = 1.86

